Tested on: 857933-349-R-J2-PDC complex spheroids, viability;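 also: spheroids exposed to compounds for one week before readout; percent viability relative to vehicle DMSO wells taken as 100%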
Experiment: Anticancer human tumor 857933-349-R-J2-PDC patient-derived colon adenocarcinoma cell line growth inhibition [GQUAD]
Details: second compound 0.0316 µM; first compound 0.0316 µM; stronger effect = lower value
property name: viability, T/C (%)
Return type: number; implicit unit %.

molecule="O=C(c1cc(Cc2n[nH]c(=O)c3ccccc23)ccc1F)N1CCN(C(=O)C2CC2)CC1 + CN(C)c1ccc(Nc2c3ccc(NC(=O)CCN4CCCC4)cc3nc3cc(NC(=O)CCN4CCCC4)ccc23)cc1" property_name="viability, T/C" observed_measurement=111
molecule="O=c1[nH]cc(F)c(=O)[nH]1 + Cc1cnc(CNC(=O)c2c(=O)c3ccc(N4CCCN(C)CC4)nc3n3c2sc2ccccc23)cn1" property_name="viability, T/C" observed_measurement=95
molecule="Cn1ncnc1[C@H]1c2n[nH]c(=O)c3cc(F)cc(c23)N[C@@H]1c1ccc(F)cc1 + Cc1[nH]c2ccc(F)cc2c1-c1nc2c3cccnc3c3ncccc3c2[nH]1" property_name="viability, T/C" observed_measurement=89.7

Can you share its viability, T/C? I mean this molecule: Cc1[nH]c2ccccc2c1CCNCc1ccc(/C=C/C(=O)NO)cc1 + Cc1[nH]c2ccc(F)cc2c1-c1nc2c3cccnc3c3ncccc3c2[nH]1
104

Same lookup for C#Cc1c(F)ccc2cc(O)cc(-c3ncc4c(N5CC6CCC(C5)N6)nc(OCC56CCCN5CC(F)C6)nc4c3F)c12 (stereo not given) + Cc1cnc(CNC(=O)c2c(=O)c3ccc(N4CCCN(C)CC4)nc3n3c2sc2ccccc23)cn1 , please.
101

Every entry's value here was drawn from PubChem BioAssay AID2060491.
